Tested on: MS2 coat protein
Assay: apparent KD of MS2 coat protein; higher = weaker reporter binding
Settings: Eterna round: R107; input ligand: tryptophan 2.4 mM
Output yes (1) for apparent KD of MS2 coat protein not less than 40 nM; output no (0) otherwise.

Biosequence	Discrete label
GGUCUCUGGAGCGAUACCAGCUUGAUCGUACUAGCCAGGUACAUGAGGAUCACCCAUGUAAGCCCUUGGCAGCGCUCCAGAGACC [#1 Exclusion - Theophylline B Attempt #9 (HarryS)]	no (0)
AUAUAUACAUGAGGAUCACCCAUGUUAUUUCGAGGACCGGUACGGCCGCCACUCGAUAGAGUAGAAGUAUUUUGGGAUAGUUGAU [JR_SSTryptoA_Sub015]	no (0)
AGCUCGCAUCCUCUAGCGUCAAAGACGCGUCGAGGACCGGUACGGCCGCCACUCGACGUGAGGAUCACCCACGUCUAAGCGAGCA [TrypAX 10 #SwitchBubble #AlternativeMS2 #MS2Late #CuTurnoff]	yes (1)
ACAUCCAGAUUAAUCGUGGGCAUACUCGAUACCAGUAUUUUAACCUACCCUUGGCAGCGACAUGAGGAUCACCCAUGUGAGAUGA [XTheo A #10]	no (0)
UUGUUGUUUGGAAGGAGCGUGGAUGAGUUAGAACAUGAGGAUCACCCAUGUUGGAUGAUACCGCAGGUAGGUCGCCGGGUGGUGG [11.aA]	yes (1)
UCUUUCUUUGUAGAUACCAGCAUGUUAAGUUUCUUUUGACAUGAGGAUCACCCAUGUACAUGCCCUUGGCAGCUACAUUUUCUUU [SSThB NP+V+V2 Same Structure]	no (0)
ACAUGAGGAUCACCCAUGUUCCUCAUUGAUACCAGUGAAUUUAGACGCCCUUGGCAGCGAGUUUUUUAAGAAGAAGUUUUUUUUU [6.E]	yes (1)
CGCAAGCAACAUGAGGAUCACCCAUGUGAAGGAGCGCCGAAUAAGGCAGGUAGGUCGCACAUGAAUAAAUCAUGUAAAAGCUUGC [MAT - Exclusion Arginine A - Mod of Eli - D22]	yes (1)
AAAACAUGAGGAUCACCCAUGUGGUGAGAAGGAGCGUCGGAAAUGACAGGUAGGUCGCUUAUCCGUAAGUAUUAGUGUUAGUACA [SSArg A #1]	yes (1)
AGUCUUGUGGGAAGGAGCGCAUACUUCACAUGAGGAUCACCCAUGUCAAGACGUGAGUCAGUGCAGGUAGGUCGCCUAACUAAGA [Same State - Arginine B (Freestyle 15)]	no (0)

###

Tested on: K4 kissing-loop RNA reporter;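 further: bound reporter read as fluorescence of individual clusters on recovered sequencing chips by microscopy, with normalized cluster intensities fitted with a binding model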
Assay: apparent KD of K4 kissing-loop reporter; higher = weaker reporter binding
Details: Eterna round: R107; input ligand: arginine 13.2 mM

Biosequence	apparent KD of K4 kissing-loop reporter [nM]
CGCAGUGAUGUUGCGAGUAGCUACAGGGAAGGAGCGUGCUAGAGCACAGGUAGGUCGCCCAGUGGCAGUGAUGUUGCCAAAGGGU [Exclusion ARginine A GF 17]	119
GUCUCAAAAGAGGCAAGCACUCACGAGGACAAGGAUAUCAUAUCAAUGAGAAGGUGUCCUCGUCCUUAGUGAUGUUAAGGAGUGC [Omei KL FMN A SS E v3]	298
UGACGUUUGGGAAGGAGCGGAAUGUAAUACGGAGCGCGUGGAGAUGCAGUGAUGUUGCAGAUCCAGGUAGGUCGCCCAAGGGACG [Zati]	83.5
ACACAGAGUUGCCGAGUGAUGUUCGGCUUACGAGGACCGGUACGGCCGCCACUCGUUACUCUGUGUUUUGGACACCAAGGCGUCG [Tionzaanon]	449
CCUAUCUCAUACGAUACCAGUCUACGAUAUUUUAUCGUUGCCAACACCGAGUGAUGUUCGGACCCUUGGCAGCGUAUGGGAUAGG [#03 K4 Theophylline B Exclusion]	129
GGUGACUACCAGAGGUGAUGUAUAGUAUCGCGAGGACCGGUACGGCCGCCACUCGUGAAGAGAAAGGAGUGAUGUUCCGUAAUGG [Kazoo C8]	315
UGUUUUUACUGAAGGAGCGGCAAUUGAUACGUAGAUAUAGUGAUGUUAUAUAAGAUAGAGAGCCAGGUAGGUCGCAGAAUGAAUC [ExArgB.aD]	188
AAAUUGUUUAGAGGAUAUUCUUUAUUCGACAUAACCUUCUAUAAGGUGCAGUGAUGUUGCAAUAUAGGAGAAGGUUGAGUGAUAA [Exclusion FMN B Gf 15]	118
GUCUCGAGUGAUGUUCGGGUCGAUUGGGAAGGAGCGCCCGGAAGGGCAGGUAGGUCGCCCGGACCGCGCGGGCAACCGCGCGGCC [#2 Same State - Arginine A Attempt #11 (HarryS)]	108
UGCUUAGUGAUGUUUGAUUUGGUGCAUGCAGAGGAUAUAGGGUGCUUUAGAAGGCUGAGGAGUGCGCCGAGUGAUGUUCGGCGCU [Exclusion FMN A GF11]	164
GCCUUAUAUCCAGCUACAGCUCUUUUUGGUCGAGGACCGGUACGGCCGCCACUCGAAUGAUAGUGAUGUUAUCGUUUUGUACUAA [JR_Nu_ExcTryptoA_Sub024]	112
UGGAGUUGACGAAAAGUCAACUCCCGAGAAGGAGCGGACGAAAGUCCAGGUAGGUCGCUCACUACCAGUGAUGUUGGUACUAAAA	196

###

Tested on: MS2 coat protein
Assay: apparent KD of MS2 coat protein; designed switch direction (-1 OFF switch, 1 ON switch): -1; higher = weaker reporter binding
Details: Eterna round: R95; input ligand: microRNA oligo, concentration not stated

Biosequence	apparent KD of MS2 coat protein [nM]
AAGAAGUGAGGAUAUGGCCGGGUCCCUGGGUUUGGACCCGGCCAGAAGGCACAUGAGGAUCACCCAUGUAAGAA [Excls4-X] (puzzle: Exclusion 4)	21.1
UCUAGACAUGAGGAUCACCCAUGUGAGGAUAUGAUGCGAUCGUCGAAAGACGAUAGCAUCAGAAGGCACGUAUG [Fiskers Ex 1 - 14] (puzzle: Exclusion 1)	54.4
GGUUAUUGCAAGGAUAUGCUUUUUUGUGAAAUUGCAGAAGGUGCAACAUGAGGAUCACCCAUGUUGGAUGGGUU [JR_E6_Sub017] (puzzle: Exclusion 6)	93.7
UUCAUGUGAGGAUAUAGUACUUCUUCUAUUAUUAUUGAGUACUAGAAGGCACAUGAGGAUCACCCAUGUAGUAC [Ex4 - 3 - 43] (puzzle: Exclusion 4)	39.1
AGAAUUGCCCAUGGCCGCAAGCUUUUUGCUUGUCUUACCACAUGAGGAUCACCCAUGUGACAUGGGCUCCUUAUAAU [Anargees] (puzzle: Sensor v3, turn-off variant 2)	9.32
ACGUAACGAGCUUGAUCCAACAUGAGGAUCACCCAUGUGCUCGUCUUAUAACGUACUGUCACGUUAGUGAUAGUGCG [Sensor v3, turn-off variant 1 (MOD of Eli's v1-13 v.5)] (puzzle: Sensor v3, turn-off variant 1)	369
GGCUAGUCAGGAUAUACGAACAUGUCAAAAGACGUGAAGGGACAUGAGGAUCACCCAUGUAGAAGGGACUAGCU [salish99_ex2_r3_003] (puzzle: Exclusion 2)	27.9
ACAAGCUUUUUGUUCGUCUUAUAAUAAUAAAUAAAUAUAACAUGAGGAUCACCCAUGUUAAGAAGACAACCUCAUGU [Sesor Array 25 - Jieux - Sensor v3, turn-off variant 2] (puzzle: Sensor v3, turn-off variant 2)	606
GUGUAGAUAGGAUAUGCUUAGAGCUUACGAAAGUAGGCUCUACAUGAGGAUCACCCAUGUAGAAGGGUCUACAC [Dot plot directed A v16] (puzzle: Exclusion 2)	24.9
AAACUGUGAGGAUAUGGUGAGUAGUGCCUGAGCGCUGCUCACCAGAAGGCACAUGAGGAUCACCCAUGUAUAAA [Mat - Exclusion 4 - Mod of JL - D6] (puzzle: Exclusion 4)	24.2

###

Tested on: MS2 coat protein
Assay: apparent KD of MS2 coat protein; designed switch direction (-1 OFF switch, 1 ON switch): -1; higher = weaker reporter binding
Settings: input ligand: FMN 200 uM

Biosequence	Assayed target	apparent KD of MS2 coat protein
AGGGAGCGAGGAUAUACAGAGUAAGAAACUACUCCCUCAGUACAUGAGGAUCACCCAUGUAGAAGGCGCCCGAC [EX2 A.2] (Eterna round: R97, puzzle: Exclusion 2)	MS2 coat protein	33.7 nM
GAAUAACAAGUGAGGAUAUGGAGUUGGGAGCCAGUUCAGAAGGCACAUGAGGAUCACCCAUGUGAACCGCAGCU [Eternabot (L2) Solution 45] (Eterna round: R97, puzzle: Brourd's mod of Exclusion 4)	MS2 coat protein	16.9 nM
UGAGCUUGAGGAUAUACAAGCUUGAGCUGAAAAGUUCGAGUACAUGAGGAUCACCCAUGUAGAAGGCGAGUUCG [-26.7, -25.2 kcal, A 31% 1bis and 1] (Eterna round: R97, puzzle: Exclusion 2)	MS2 coat protein	39.7 nM
ACAUGGGAGCGAGGAUAUAGCCCAUGUGAAGAACUAGAAGGCGCAGACAUGAGGAUCACCCAUGUGUUCAUGAGGAGGUGGACA (Eterna round: R96, puzzle: Exclusion NG 1)	MS2 coat protein	72.7 nM
GAUCAUGCAGGAUAUACAUGGAACAUUAAAUCAUGAAUUUCACAUGAGGAUCACCCAUGUAGAAGGGCAUGAUC [Omei Ex2 A16] (Eterna round: R97, puzzle: Exclusion 2)	MS2 coat protein	32.5 nM
AGAUAGAGCUGAGGAUAUGAGAAUAGAAAGAAAUCAGAAGGCAGACAUGAGGAUCACCCAUGUGAGUUCUUGAGAUUACAUGGU [Prohibition 43 - Jieux - Exclusion NG 1] (Eterna round: R96, puzzle: Exclusion NG 1)	MS2 coat protein	498 nM
AGUCAGGCGGUAGGAUAUCCAAAUCGAGUGACCCUCUCAUAACAUGAGGAUCACCCAUGUCGGUGGGAGAAGGGCCGUAAGGCA [Mat - Exclusion NG 2 - Mod of JL - D64] (Eterna round: R96, puzzle: Exclusion NG 2)	MS2 coat protein	33 nM
UAAAAGAAAGUAAGGAUAUCUAAAUUGGAAAAGAGAGAGAAGGUACAUGAGGAUCACCCAUGUAGGGUAUCCUG [Ritien] (Eterna round: R97, puzzle: Brourd's mod of Exclusion 4)	MS2 coat protein	41.8 nM
ACAGUAUGAUCCGCUCAACAUGAGGAUCACCCAUGUGAUGACUAGGAUAUUAGUAGCCCGCGCAUUAAGAAGGAGUUACGAUUG [Eternabot solution 33] (Eterna round: R96, puzzle: Exclusion NG 3)	MS2 coat protein	20 nM
